# TARGET_DESC: EPHB1 (UniProt P54762)
# Sequence (P54762 whole entry, looked up): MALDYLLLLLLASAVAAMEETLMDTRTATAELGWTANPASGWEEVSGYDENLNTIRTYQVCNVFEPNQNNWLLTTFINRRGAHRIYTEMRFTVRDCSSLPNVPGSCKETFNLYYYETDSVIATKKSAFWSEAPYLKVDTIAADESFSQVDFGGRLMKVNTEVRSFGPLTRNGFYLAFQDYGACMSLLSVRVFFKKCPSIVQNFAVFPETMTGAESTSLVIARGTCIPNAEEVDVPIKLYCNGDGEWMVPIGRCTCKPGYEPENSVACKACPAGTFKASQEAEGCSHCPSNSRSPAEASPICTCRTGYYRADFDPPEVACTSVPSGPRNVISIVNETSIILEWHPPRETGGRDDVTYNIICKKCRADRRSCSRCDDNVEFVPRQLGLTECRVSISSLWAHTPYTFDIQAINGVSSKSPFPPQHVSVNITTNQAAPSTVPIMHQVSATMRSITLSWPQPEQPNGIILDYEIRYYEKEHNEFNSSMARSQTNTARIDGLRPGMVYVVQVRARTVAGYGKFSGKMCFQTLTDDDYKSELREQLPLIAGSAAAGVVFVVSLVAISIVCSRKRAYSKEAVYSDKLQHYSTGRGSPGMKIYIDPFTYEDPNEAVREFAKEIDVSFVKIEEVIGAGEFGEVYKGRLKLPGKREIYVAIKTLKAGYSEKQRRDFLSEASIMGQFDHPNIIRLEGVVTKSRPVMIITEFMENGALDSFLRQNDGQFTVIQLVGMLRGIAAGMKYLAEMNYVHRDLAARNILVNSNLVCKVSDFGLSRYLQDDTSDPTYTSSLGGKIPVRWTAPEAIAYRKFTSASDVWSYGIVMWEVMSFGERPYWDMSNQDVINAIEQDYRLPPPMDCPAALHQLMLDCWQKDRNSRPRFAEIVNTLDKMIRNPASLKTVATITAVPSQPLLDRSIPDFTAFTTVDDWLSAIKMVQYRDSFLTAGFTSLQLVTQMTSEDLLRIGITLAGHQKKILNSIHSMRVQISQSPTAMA
# MEASUREMENT_DESCRIPTION: phosphorylation enrichment, bacterial display (enrichment ratio); higher = better substrate or ligand; peptides without Tyr show the background;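 also: 11-residue human phosphosite peptides and single-mutation variants displayed on the E. coli surface, counted by deep sequencing, each peptide's frequency after selection divided by its frequency in the unselected input library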;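 also: frequency after pTyr selection over input frequency; kinase dosed for 20-30% of maximal phosphorylation in three min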
We use 0.6 as the dividing line for phosphorylation enrichment: on or above the line is y, below is n.

1. TLNFCYQQVKS [PTK2_Y148_F147C]: y
2. ERTIEYLEEVV [HADHA_Y239_A244V]: n
3. GIVEDYRPRFY [ACVRL1_Y421_P424R]: n
4. VSGIPYSQPKQ [NEU1_Y251_G252S]: n
5. VNNLVYENING [FRS2_Y306_K303N]: y
6. LMLVLYGRIFR [HTR1A_Y215]: y
7. QGIYGYHHHMQ [UFSP2_Y287_Y290H]: y
8. WQQQSYLDSVI [CTNNB1_Y30_G34V]: n
9. SVVMPYEPPEV [TP53_Y220_V218M]: n
10. PGVDIYVSPNM [PADI3_Y51_I52V]: y
11. DIRAQYDELAR [KRT18_Y256]: n
12. FPPTHYIRRMP [SLC4A11_Y820_V824M_YF]: n
13. LSRDVYEEDSF [RET_Y900_YF]: y

* * *

# TARGET_DESC: Fyn (UniProt P06241)
# Sequence (P06241 whole entry, looked up): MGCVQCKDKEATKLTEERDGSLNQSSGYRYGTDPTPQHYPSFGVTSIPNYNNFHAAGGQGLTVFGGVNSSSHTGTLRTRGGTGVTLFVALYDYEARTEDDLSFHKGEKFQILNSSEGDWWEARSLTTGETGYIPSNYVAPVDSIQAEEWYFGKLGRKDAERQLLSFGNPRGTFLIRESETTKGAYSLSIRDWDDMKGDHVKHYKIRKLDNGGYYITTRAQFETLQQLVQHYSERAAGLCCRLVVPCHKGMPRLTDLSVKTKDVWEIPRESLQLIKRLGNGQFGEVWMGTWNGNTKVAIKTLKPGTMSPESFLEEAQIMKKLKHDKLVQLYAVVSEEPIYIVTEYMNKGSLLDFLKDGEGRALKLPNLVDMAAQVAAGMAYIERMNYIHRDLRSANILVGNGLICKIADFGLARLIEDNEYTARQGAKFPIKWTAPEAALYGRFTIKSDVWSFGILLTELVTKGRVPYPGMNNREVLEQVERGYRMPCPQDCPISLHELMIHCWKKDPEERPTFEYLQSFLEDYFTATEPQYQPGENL
# MEASUREMENT_DESCRIPTION: phosphorylation enrichment, bacterial display (enrichment ratio); higher = better substrate or ligand; peptides without Tyr show the background
We use 0.6 as the dividing line for phosphorylation enrichment: on or above the line is satisfied, below is not satisfied.

1) DRLAVYIDRVR [LMNA_Y45]: not satisfied
2) AEKPKYQINNI [TJP1_Y1602]: not satisfied
3) GDRPVYSEDEQ [CHST6_Y362_Y358D]: satisfied
4) KFMVGYEMIAQ [GALT_Y339_L342I]: not satisfied
5) HLVLNYGVCFC [JAK2_Y613_V617F]: satisfied
6) TNYRLYLRSLE [MTM1_Y71]: not satisfied
7) TAGFSYEKWEI [TEC_Y360]: not satisfied
8) GFPVHYTDMSN [DNMT3B_Y815_V818M]: not satisfied
9) AEMKRYAESSS [RAI14_Y869]: not satisfied
10) CRIELYRVVES [IGFBP1_Y181]: not satisfied
11) EARRVYGDIIY [ALDH5A1_Y175_H180Y]: satisfied
12) ADLAKYICENR [ALB_Y287_Q292R]: not satisfied
13) CTTIHYNYMCN [TP53_Y234]: not satisfied
14) KDFTKYVAYIE [KDM4B_Y31_N29T]: not satisfied
15) RHIEKYVDQGK [IRAK3_Y61]: not satisfied
16) DDERGYRRVRS [GIGYF2_Y268]: not satisfied
17) TESALYGCTVV [KIAA1804_Y724_L729V]: satisfied
18) EQAERYDDMAA [YWHAG_Y20]: not satisfied
19) REHTVYGEPRK [MAGEA4_Y240]: satisfied
20) AEMTGYVVTRW [MAPK13_Y182]: not satisfied
21) DPEGAYTTRGG [EPHA3_Y779_A777G]: not satisfied
22) DPGVSYRTREE [PDHA1_Y301]: not satisfied
23) CQKRKYIEIDS [SDAD1_Y580_S575C]: not satisfied
24) KKFPDYIQIAM [SGMS2_Y59_YF]: not satisfied
25) QITQVYGFYHE [PPP2CA_Y127_D131H]: satisfied

The reported measurements were obtained from the supplement of paper PMC10065799.
